Listed here are binders together with their documented MFI.
biological target: mouse DLL3 on CHO-K1-mDLL3 cells (mouse) (UniProt O88516); assay: FACS, CHO-K1-mDLL3 cells, 20 nM antibody
Sequence (O88516 other isoform, or with tags, fused parts or gaps limits assumed): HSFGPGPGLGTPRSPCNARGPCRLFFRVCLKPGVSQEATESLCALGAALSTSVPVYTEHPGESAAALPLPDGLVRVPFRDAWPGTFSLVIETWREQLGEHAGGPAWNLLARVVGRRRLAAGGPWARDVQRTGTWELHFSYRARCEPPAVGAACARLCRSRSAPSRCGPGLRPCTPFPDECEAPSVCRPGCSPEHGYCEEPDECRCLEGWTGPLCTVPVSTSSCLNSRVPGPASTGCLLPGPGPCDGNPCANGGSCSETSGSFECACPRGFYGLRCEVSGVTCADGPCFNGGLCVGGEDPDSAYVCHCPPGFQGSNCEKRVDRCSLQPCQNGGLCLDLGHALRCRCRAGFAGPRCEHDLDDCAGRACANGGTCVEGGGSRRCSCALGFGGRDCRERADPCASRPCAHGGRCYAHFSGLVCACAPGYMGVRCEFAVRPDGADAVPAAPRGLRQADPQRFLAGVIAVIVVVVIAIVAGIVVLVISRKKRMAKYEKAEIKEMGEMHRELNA
I only need the number, in MFI, no unit after it.

Hab014VL2VH1-hFc (scFv, part only; not given: scFv linker and human IgG1 Fc, V domains shown, not shown: another chain or arm of the molecule; a dimerising Fc or GST; small tags and cut ends) VL: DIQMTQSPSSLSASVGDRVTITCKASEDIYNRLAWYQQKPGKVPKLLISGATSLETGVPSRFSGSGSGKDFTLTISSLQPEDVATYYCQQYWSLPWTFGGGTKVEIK VH: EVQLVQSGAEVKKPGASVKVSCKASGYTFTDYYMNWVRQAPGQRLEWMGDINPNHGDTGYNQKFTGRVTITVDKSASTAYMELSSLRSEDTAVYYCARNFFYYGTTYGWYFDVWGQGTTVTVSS : 355

Now consider the entry below.
MFI for Hab014VL1VH2-hFc (scFv, part only; not given: VL-VH linker and human IgG1 Fc, V domains shown, not shown: another chain or arm of the molecule; a dimerising Fc or GST; small tags and cut ends) VL: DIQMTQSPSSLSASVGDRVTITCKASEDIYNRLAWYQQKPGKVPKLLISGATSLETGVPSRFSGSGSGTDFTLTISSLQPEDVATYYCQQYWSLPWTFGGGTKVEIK VH: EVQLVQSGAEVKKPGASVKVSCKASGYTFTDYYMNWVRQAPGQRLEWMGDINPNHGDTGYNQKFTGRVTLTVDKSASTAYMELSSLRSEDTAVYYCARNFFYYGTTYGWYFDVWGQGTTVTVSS ? 355
